Cited source: PubChem BioAssay (EPA / NIEHS)

# METHOD: ACEA_AR_antagonist_AUC_viability: ACEA Biosciences xCELLigence Real-Time Cell Analysis on Androgen Receptor Antagonism for Viability (AID 2283776);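 further: 22Rv1 human prostate cancer cells growing on impedance electrode plates; area under impedance growth curve at 80 h after dosing as viability; hits lower the growth signal relative to DMSO meaning cytotoxicity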
Results filed as inconclusive are left out. Activity calls are given as the source filed them. How the source made its calls: active means hit-call score of the fitted dose curve at least 0.9, where 1 is the maximum; inconclusive means response in the unintended direction; inactive means score below 0.9.
Labels: active, inactive

COMPOUND	ASSIGNED CLASS
CC(C)OC(=O)Nc1cccc(Cl)c1	active
N#Cc1c(Cl)c(Cl)c(Cl)c(C#N)c1Cl	active
O=[N+]([O-])/N=C1\NCCN1Cc1ccc(Cl)nc1	inactive
CC1(c2ccc(Oc3ccccc3)cc2)OC(=O)N(Nc2ccccc2)C1=O (centres undefined)	active
CC[C@H](C)[C@H]1O[C@]2(C=C[C@@H]1C)C[C@@H]1C[C@@H](C/C=C(\C)[C@@H](O[C@H]3C[C@H](OC)[C@@H](O[C@H]4C[C@H](OC)[C@@H](O)[C@H](C)O4)[C@H](C)O3)[C@@H](C)/C=C/C=C3\CO[C@@H]4[C@H](O)C(C)=C[C@@H](C(=O)O1)[C@]34O)O2 (tested in a mixture with another compound)	active
CCCN(CCC)c1c([N+](=O)[O-])cc(C(F)(F)F)cc1[N+](=O)[O-]	active
COP(=O)(OC)OC=C(Cl)Cl	inactive
CCC(C)(C)C(=O)OC1=C(c2ccc(Cl)cc2Cl)C(=O)OC12CCCCC2	inactive
CC(C)N(C(=O)COc1nnc(C(F)(F)F)s1)c1ccc(F)cc1	active
CCC(C)(NC(=O)c1cc(Cl)c(C)c(Cl)c1)C(=O)CCl (centres undefined)	active
CCOCN(C(=O)CCl)c1c(C)cccc1CC	active
O=C(Nc1ccccc1)Nc1cnns1	active
CCOC1Oc2ccc(OS(C)(=O)=O)cc2C1(C)C (centres undefined)	active
N#CN	inactive
O=C(O)COc1ccc(Cl)cc1Cl	inactive
COc1nn(CSP(=S)(OC)OC)c(=O)s1	active
CNC(=O)CSP(=S)(OC)OC	inactive
C#CCN1C(=O)COc2cc(F)c(N3C(=O)C4=C(CCCC4)C3=O)cc21	active
CNC(=O)Oc1cccc(N=CN(C)C)c1	inactive

* * *

# TARGET ENTITY: rat CYP2C13, Cyp2c13 (gene 171521)
# METHOD: NVS_ADME_rCYP2C13: NovaScreen (NVS) CYP450-related Enzyme Activity (ADME) Assay for rat CYP2C13 (AID 2283121)
Inconclusive results are not listed. Active and inactive are the calls of the source. The calls were made as follows: active = hit-call score of the fitted dose curve at least 0.9, where 1 is the maximum; inconclusive = response in the unintended direction; inactive = score below 0.9.
Labels: active, inactive

MOLECULE	ASSIGNED CLASS
C#CCN1C(=O)COc2cc(F)c(N3C(=O)C4=C(CCCC4)C3=O)cc21	active
CCC(C)(NC(=O)c1cc(Cl)c(C)c(Cl)c1)C(=O)CCl (centres undefined)	inactive
CCCN(CCOc1c(Cl)cc(Cl)cc1Cl)C(=O)n1ccnc1	active
CC(C)(C)C(O)/C(=C\c1ccc(Cl)cc1Cl)n1cncn1 (centres undefined)	active
O=C(Nc1ccccc1)Nc1cnns1	inactive
CCC(C)Nc1c([N+](=O)[O-])cc(C(C)(C)C)cc1[N+](=O)[O-] (centres undefined)	inactive
Oc1ccc(Cl)cc1Cc1ccccc1	active
CC[C@H](C)[C@H]1O[C@]2(C=C[C@@H]1C)C[C@@H]1C[C@@H](C/C=C(\C)[C@@H](O[C@H]3C[C@H](OC)[C@@H](O[C@H]4C[C@H](OC)[C@@H](O)[C@H](C)O4)[C@H](C)O3)[C@@H](C)/C=C/C=C3\CO[C@@H]4[C@H](O)C(C)=C[C@@H](C(=O)O1)[C@]34O)O2 (tested in a mixture with another compound)	active
COP(=S)(OC)Oc1ccc([N+](=O)[O-])cc1	active
